# TEST NAME: MRT in BALB/c mouse at 5 mg/kg, po measured upto 24 hrs by LC-MS/MS analysis
# Format: ADME, organism-based
# ASSAY SETUP: in vivo

GIVEN SMILES | MRT
COc1cc(N2CCC(N3CC(CC#N)C3)CC2)c(C)cc1Nc1ncc(Br)c(Nc2ccc3nccnc3c2P(C)(C)=O)n1 | 5.12 h
COc1cc(N2CCC(N3C[C@H]4COC[C@H]4C3)CC2)c(C)cc1Nc1ncc(Br)c(Nc2ccc3nccnc3c2P(C)(C)=O)n1 | 5.6 h
COc1cc(N2CCC(N3CC(F)(CO)C3)CC2)c(C)cc1Nc1ncc(Br)c(Nc2ccc3nccnc3c2P(C)(C)=O)n1 | 6.3 h
COc1cc(N2CCC(N3CC(N(C)C)C3)CC2)c(C)cc1Nc1ncc(Br)c(Nc2ccc3nccnc3c2P(C)(C)=O)n1 | 6 h
